Kindly supply the reported Ratio EC50 values for the records listed here.
System: Human immunodeficiency virus 1
assay-details: Ratio of EC50 for HIV1 mutant strain 2 to EC50 for wild type HIV1
Type: functional
Form field (numeric): enter value without unit.

Q: State recorded Ratio EC50 with Human immunodeficiency virus 1, entry "Cc1c(O)cccc1C(=O)N[C@@H](CSc1ccccc1)[C@H](O)CN1C[C@H]2CCCC[C@H]2C[C@H]1C(=O)NC(C)(C)C" , no comment.
Result: 64

Q: State recorded Ratio EC50 with Human immunodeficiency virus 1, entry "CC(C)CN(C[C@@H](O)[C@H](Cc1ccccc1)NC(=O)O[C@H]1CCOC1)S(=O)(=O)c1ccc(N)cc1" , no comment.
Result: 25

Q: State recorded Ratio EC50 with Human immunodeficiency virus 1, entry "COc1cccc(C[C@H](NC(=O)c2cccc(N)c2Cl)[C@H](O)C(=O)N2CSC(C)(C)[C@H]2C(=O)NCc2c(C)cccc2C)c1" , no comment.
Result: 19

Q: State recorded Ratio EC50 with Human immunodeficiency virus 1, entry "COC(=O)N[C@H](C(=O)N[C@@H](Cc1ccccc1)[C@@H](O)CN(Cc1ccc(-c2ccccn2)cc1)NC(=O)[C@@H](NC(=O)OC)C(C)(C)C)C(C)(C)C" , no comment.
Result: 32

---

assay-details: Volume of distribution at steady state in Beagle dog at 15 mg/kg, iv
Assay type: ADME, organism-based, Canis lupus familiaris
Design: dose 15 mg/kg, route intravenous
assay-conditions: in vivo, read-out: Vdss
measure: Vd (L/kg)
Output spec: scalar in L/kg, unitless text.

Q: For the compound "Cc1ccccc1CNC(=O)[C@H]1N(C(=O)[C@@H](O)[C@H](Cc2ccccc2)NC(=O)c2cccc(O)c2C)CSC1(C)C" , report Vd.
Result: 1.6

Q: For the compound "COc1cccc(C[C@H](NC(=O)c2cccc(N)c2Cl)[C@H](O)C(=O)N2CSC(C)(C)[C@H]2C(=O)NCc2c(C)cccc2C)c1" , report Vd.
Result: 1.3

Q: For the compound "COc1cccc(C[C@H](NC(=O)c2cccc(N)c2Cl)[C@H](O)C(=O)N2CCC(C)(C)[C@H]2C(=O)NCc2c(C)cccc2C)c1" , report Vd.
Result: 1.9

Q: For the compound "COC(=O)N[C@H](C(=O)N[C@@H](Cc1ccccc1)[C@@H](O)CN(Cc1ccc(-c2ccccn2)cc1)NC(=O)[C@@H](NC(=O)OC)C(C)(C)C)C(C)(C)C" , report Vd.
Result: 2

---

assay-details: Plasma concentration in Beagle dog at 15 mg/kg, po after 12 hrs co-administered with 7.5 mg/kg of ritonavir, po
Assay type: ADME, organism-based, Canis lupus familiaris
measure: concentration at 12 h (nM)
Output spec: scalar in nM, unitless text.

Q: For the molecule "COc1cccc(C[C@H](NC(=O)c2cccc(N)c2Cl)[C@H](O)C(=O)N2CSC(C)(C)[C@H]2C(=O)NCc2c(C)cccc2C)c1" , report concentration at 12 h.
Result: 2950

---

assay-details: AUC in Beagle dog at 15 mg/kg, po co-administered with 7.5 mg/kg of ritonavir, po
Type: ADME, organism-based, Canis lupus familiaris
assay-conditions: plasma
measure: AUC (µM·h)
Output spec: scalar in µM·h, unitless text.

Q: For the compound "COc1cccc(C[C@H](NC(=O)c2cccc(N)c2Cl)[C@H](O)C(=O)N2CSC(C)(C)[C@H]2C(=O)NCc2c(C)cccc2C)c1" , report AUC.
Result: 52.8

---

assay-details: Metabolic stability in rat liver microsomes assessed as compound remaining at 5 uM in presence of 0.5 uM ritonavir by RP-HPLC
Format: ADME, Microsome
assay-conditions: with ritonavir 0.5 uM, read-out: Stability
Kindly supply the reported remaining at 5 µM values for the records listed here.
Output spec: scalar in %, unitless text.

Q: For the compound "Cc1cccc(C)c1OCC(=O)N[C@@H](Cc1ccccc1)[C@@H](O)C[C@H](Cc1ccccc1)NC(=O)[C@H](C(C)C)N1CCCNC1=O" , report remaining at 5 µM.
Result: 83

Q: For the compound "COc1cccc(C[C@H](NC(=O)c2cccc(N)c2Cl)[C@H](O)C(=O)N2CSC(C)(C)[C@H]2C(=O)NCc2c(C)cccc2C)c1" , report remaining at 5 µM.
Result: 41

Q: For the compound "Cc1ccccc1CNC(=O)[C@H]1N(C(=O)[C@@H](O)[C@H](Cc2ccccc2)NC(=O)c2cccc(O)c2C)CSC1(C)C" , report remaining at 5 µM.
Result: 16

---

Kindly supply the reported EC50 values for the records listed here.
Test system: Human immunodeficiency virus 1
assay-details: Antiviral activity against HIV1 3B
Type: functional, organism-based
assay-conditions: Human immunodeficiency virus 1, 3B

Q: For the compound "CC(C)(C)NC(=O)[C@@H]1C[C@@H]2CCCC[C@@H]2CN1C[C@@H](O)[C@H](Cc1ccccc1)NC(=O)[C@H](CC(N)=O)NC(=O)c1ccc2ccccc2n1" , report EC50.
Result: 7 nM

Q: For the compound "COc1cccc(C[C@H](NC(=O)c2cccc(N)c2Cl)[C@H](O)C(=O)N2CCC(C)(C)[C@H]2C(=O)NCc2c(C)cccc2C)c1" , report EC50.
Result: 36 nM

Q: For the compound "COc1cccc(C[C@H](NC(=O)c2cccc(N)c2Cl)[C@H](O)C(=O)N2CSC(C)(C)[C@H]2C(=O)NCc2c(C)cccc2C)c1" , report EC50.
Result: 4 nM

Q: For the compound "COc1cccc(C[C@H](NC(=O)c2cccc(N)c2Cl)[C@H](O)C(=O)N2CSC(C)(C)[C@H]2C(=O)NCc2ccccc2C)c1" , report EC50.
Result: 21 nM

Q: For the compound "Cc1ccccc1CNC(=O)[C@H]1N(C(=O)[C@@H](O)[C@H](Cc2ccccc2)NC(=O)c2cccc(O)c2C)CSC1(C)C" , report EC50.
Result: 26 nM

Q: For the compound "CCOc1ccc(C[C@H](NC(=O)c2cccc(N)c2Cl)[C@H](O)C(=O)N2CSC(C)(C)[C@H]2C(=O)NCc2ccccc2C)cc1" , report EC50.
Result: 6 nM

Q: For the compound "CCOc1ccc(C[C@H](NC(=O)c2cccc(N)c2Cl)[C@H](O)C(=O)N2CCC(C)(C)[C@H]2C(=O)NCc2c(C)cccc2C)cc1" , report EC50.
Result: 63 nM

Q: For the compound "COc1ccc(C[C@H](NC(=O)c2cccc(N)c2Cl)[C@H](O)C(=O)N2CSC(C)(C)[C@H]2C(=O)NCc2c(C)cccc2C)cc1" , report EC50.
Result: 24 nM

Q: For the compound "COc1ccc(C[C@H](NC(=O)c2cccc(N)c2Cl)[C@H](O)C(=O)N2CCC(C)(C)[C@H]2C(=O)NCc2c(C)cccc2C)cc1" , report EC50.
Result: 40 nM

Q: For the compound "Cc1cccc(C)c1CNC(=O)[C@H]1N(C(=O)[C@@H](O)[C@H](Cc2ccc3c(c2)OCO3)NC(=O)c2cccc(N)c2Cl)CSC1(C)C" , report EC50.
Result: 17 nM

Q: For the compound "CCOc1ccc(C[C@H](NC(=O)c2cccc(N)c2Cl)[C@H](O)C(=O)N2CSC(C)(C)[C@H]2C(=O)NCc2c(C)cccc2C)cc1" , report EC50.
Result: 20 nM

Q: For the compound "Cc1ccccc1CNC(=O)[C@H]1N(C(=O)[C@@H](O)[C@H](Cc2ccccc2)NC(=O)c2cccc(N)c2Cl)CSC1(C)C" , report EC50.
Result: 77 nM

Q: For the compound "COc1ccc(C[C@H](NC(=O)c2cccc(N)c2Cl)[C@H](O)C(=O)N2CSC(C)(C)[C@H]2C(=O)NCc2ccccc2C)cc1" , report EC50.
Result: 18 nM

Q: For the compound "Cc1cccc(C)c1OCC(=O)N[C@@H](Cc1ccccc1)[C@@H](O)C[C@H](Cc1ccccc1)NC(=O)[C@H](C(C)C)N1CCCNC1=O" , report EC50.
Result: 8 nM

---

Kindly supply the reported clearance values for the records listed here.
assay-details: Plasma clearance in Beagle dog at 15 mg/kg, iv
Assay type: ADME, organism-based, Canis lupus familiaris
Set-up: dose 15 mg/kg, route intravenous
Output spec: scalar in mL/min/kg, unitless text.

Q: For the compound "COc1cccc(C[C@H](NC(=O)c2cccc(N)c2Cl)[C@H](O)C(=O)N2CCC(C)(C)[C@H]2C(=O)NCc2c(C)cccc2C)c1" , report clearance.
Result: 16.7

Q: For the compound "COC(=O)N[C@H](C(=O)N[C@@H](Cc1ccccc1)[C@@H](O)CN(Cc1ccc(-c2ccccn2)cc1)NC(=O)[C@@H](NC(=O)OC)C(C)(C)C)C(C)(C)C" , report clearance.
Result: 26.7

Q: For the compound "COc1cccc(C[C@H](NC(=O)c2cccc(N)c2Cl)[C@H](O)C(=O)N2CSC(C)(C)[C@H]2C(=O)NCc2c(C)cccc2C)c1" , report clearance.
Result: 18.3

Q: For the compound "Cc1ccccc1CNC(=O)[C@H]1N(C(=O)[C@@H](O)[C@H](Cc2ccccc2)NC(=O)c2cccc(O)c2C)CSC1(C)C" , report clearance.
Result: 15
